Each recorded value in this set is attributed to PubChem BioAssay AID2300.

Target: Photoreceptor-specific nuclear receptor (Homo sapiens) (UniProt Q9Y5X4)
Sequence (Q9Y5X4 whole entry, looked up): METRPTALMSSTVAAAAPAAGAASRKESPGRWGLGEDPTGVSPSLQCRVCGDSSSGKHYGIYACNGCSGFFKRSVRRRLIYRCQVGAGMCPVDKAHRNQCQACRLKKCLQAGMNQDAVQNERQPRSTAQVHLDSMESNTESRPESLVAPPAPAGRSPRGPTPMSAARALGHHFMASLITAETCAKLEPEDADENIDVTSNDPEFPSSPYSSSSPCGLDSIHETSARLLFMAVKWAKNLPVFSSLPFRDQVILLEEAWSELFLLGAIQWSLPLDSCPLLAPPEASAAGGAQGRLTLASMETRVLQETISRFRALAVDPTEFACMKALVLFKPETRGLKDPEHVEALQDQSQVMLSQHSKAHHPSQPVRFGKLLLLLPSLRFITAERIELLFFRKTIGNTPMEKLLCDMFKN
Test: inhibitors of NR2E3-RetCOR corepressor binding, primary screen, NR2E3 agonist project, biochemical, TR-FRET, GST-NR2E3, biotin-RetCOR (AID 2300);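 also: 0% = DMSO wells and 100% = biotin wells as full block of FRET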
Conditions: 1536-well, at 4.78 µM
Among all 320,000 compounds or so, about 380 (0.12%) were called active.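 The calls were made as follows: active = percent inhibition above the cutoff of mean plus 3 SD of all tested compounds, set per screening campaign (cut at about 20% in these data); inactive = the rest.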 The list comes from a sample in which actives are over-represented; it also holds close analogues and randomly drawn compounds.
Form entry, call: pick from Yes (active), No (inactive)

{"columns": ["molecule", "qualitative_label"],
 "data": [
  ["Cc1ccc(C(=O)N/C(=C/c2ccc(-c3cccc([N+](=O)[O-])c3)o2)C(=O)NCCCN(C)C)cc1", "No"],
  ["O=S(=O)(Nc1n[nH]c(C(F)(F)F)n1)c1ccccc1", "No"],
  ["COC(C)(C)[C@]12CC(O)(C(C)C)ON1[C@H]1CCCCC1N2O (stereo partly specified)", "No"],
  ["Cc1ccc(CC(=O)Nc2ccc(S(=O)(=O)N3CCOCC3)cc2)cc1C", "No"],
  ["CC(=O)Nc1ccc(N2CCOCC2)c(C(=O)Nc2cccc(C)c2)c1", "No"],
  ["O=C(CSc1nc2c(cnn2-c2ccc(F)cc2)c(=O)[nH]1)N1CCCCCC1", "No"],
  ["O=C(COC(=O)CNS(=O)(=O)c1ccc(F)c(F)c1F)NC1CCCC1", "No"],
  ["N#C/C(C(=S)Nc1ccccc1)=C1/NN=C(N2CCOCC2)N1c1ccccc1", "No"],
  ["C[C@@H](NC(=O)c1nc[nH]c1C(=O)N1CCN(C(=O)OC(C)(C)C)CC1)c1ccccc1", "No"],
  ["Cc1cc(NC(=O)Nc2ccccc2[N+](=O)[O-])no1", "No"]
]}

q: Per the records of this test, what outcome belongs to CC1C(=O)Nc2ccccc2N1C(=O)c1c(F)cccc1F (stereo unspecified) ?
a: No

q: Per the records of this test, what outcome belongs to CC(=O)c1sc2nc(SCC(=O)N3CCCCC3)[nH]c(=O)c2c1C ?
a: Yes

q: Per the records of this test, what outcome belongs to COc1ccc(C2c3[nH]c4ccccc4c3CCN2CCCn2cccn2)cc1C (stereo unspecified) ?
a: No

q: Per the records of this test, what outcome belongs to O=C(CCN1C(=O)c2ccncc2C1=O)Nc1cc(F)ccc1F ?
a: No

q: Per the records of this test, what outcome belongs to Cc1ccc(N2C(=O)C(CC(=O)Nc3cccc(F)c3)N(CCc3ccncc3)C2=O)cc1 (stereo unspecified) ?
a: No

----------
Molecular target: Photoreceptor-specific nuclear receptor (Homo sapiens)
Test: inhibitors of NR2E3-RetCOR corepressor binding, primary screen, NR2E3 agonist project, biochemical, TR-FRET, GST-NR2E3, biotin-RetCOR (AID 2300);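 also: 0% = DMSO wells and 100% = biotin wells as full block of FRET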
Conditions: 1536-well, at 4.78 µM, hits give high values
The campaign covered roughly 320,000 compounds. About 380 (0.12%) were called active. This is one part of a sample in which actives are shown more often than they occur.
quantity: inhibition of corepressor binding (%)
Just the number please, in %, no unit attached.

q: Which inhibition of corepressor binding is listed for COc1cc(C(F)(F)F)c(C(=O)N(C)c2ccc(Cl)cc2)cn1 ?
a: -2.07

q: Which inhibition of corepressor binding is listed for O=[N+]([O-])c1ccc(Oc2ccc(F)cc2Br)c2ccncc12 ?
a: 3.74

q: Which inhibition of corepressor binding is listed for CN(C(=O)CN1C(=O)NC(C)(CCc2ccccc2)C1=O)c1ccccc1 (stereo unspecified) ?
a: 3.26

q: Which inhibition of corepressor binding is listed for C=CCOc1cccc(C2C(C(=O)c3ccc(C)o3)=C(O)C(=O)N2c2nnc(C)s2)c1 (stereo unspecified) ?
a: 14.1

q: Which inhibition of corepressor binding is listed for O=C(NCCCNC(=O)NC1CCCCC1)NC1CCCCC1 ?
a: 1.65

q: Which inhibition of corepressor binding is listed for C=CCOc1cccc(C2C(C(=O)c3ccc(C)o3)=C(O)C(=O)N2CCCn2ccnc2)c1 (stereo unspecified) ?
a: 25.8

----------
Target: Photoreceptor-specific nuclear receptor (Homo sapiens) (UniProt Q9Y5X4)
Test: inhibitors of NR2E3-RetCOR corepressor binding, primary screen, NR2E3 agonist project, biochemical, TR-FRET, GST-NR2E3, biotin-RetCOR (AID 2300);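 also: 0% = DMSO wells and 100% = biotin wells as full block of FRET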
Conditions: 1536-well, at 4.78 µM
The whole screen tested about 320,000 compounds, of which about 380 (0.12%) were called active.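 The calls were made as follows: active = percent inhibition above the cutoff of mean plus 3 SD of all tested compounds, set per screening campaign (cut at about 20% in these data); inactive = the rest.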 Many of the other results were omitted from the sample, so actives are more common in it than they were.
Form entry, call: pick from active, inactive

Below are worked cases with known answers.
{"columns": ["molecule", "qualitative_label"],
 "data": [
  ["O=C(C1=C(O)C(=O)N(Cc2ccccc2)C1c1ccco1)c1ccco1 (stereo unspecified)", "inactive"],
  ["O=C(CCCCO)c1ccc(O)c(Cl)c1", "inactive"],
  ["N#C/C(=C/c1ccc(Cl)cc1)NC(=O)c1ccccc1", "inactive"],
  ["O=C(Nc1ccccn1)C1CCN(S(=O)(=O)c2ccc3c(c2)OCCO3)CC1", "inactive"],
  ["CC(C)c1ccc(C2C(C(=O)c3ccco3)=C(O)C(=O)N2CC2CCCO2)cc1 (stereo unspecified)", "active"],
  ["COc1cc(OC)c(C(=O)N2CCCC2)cc1OC", "inactive"],
  ["CCOc1cc(C2/C(=C(/O)c3ccc(S(=O)(=O)N4CCCCC4)cc3)C(=O)C(=O)N2CCOC)ccc1O (stereo unspecified)", "inactive"],
  ["NS(=O)(=O)c1ccc(NC2=CC(c3ccc(F)cc3)N(c3ccc(S(N)(=O)=O)cc3)C2=O)cc1 (stereo unspecified)", "inactive"]
]}

q: Per the records of this test, what outcome belongs to COc1cc(C2C3C(=O)N(c4ccccc4)C(=O)C3ON2c2ccccc2)ccc1O (stereo unspecified) ?
a: inactive

q: Per the records of this test, what outcome belongs to CCOc1cc(C2C(C(=O)c3ccco3)=C(O)C(=O)N2Cc2ccccc2)ccc1O (stereo unspecified) ?
a: inactive

q: Per the records of this test, what outcome belongs to CN(c1ccccc1)S(=O)(=O)c1cccc(NC(=O)Cc2ccc(Cl)cc2)c1 ?
a: inactive

q: Per the records of this test, what outcome belongs to Cc1ccn2c(c1)nc(=O)c1cc(S(=O)(=O)N3CCC(C)CC3)ccc12 ?
a: inactive

q: Per the records of this test, what outcome belongs to CC1(C)C2CCC1(CS(=O)(=O)NCCc1c[nH]c3ccccc13)C(=O)C2 (stereo unspecified) ?
a: inactive

q: Per the records of this test, what outcome belongs to CN(C(=O)CSc1nnc(-c2ccc(C(C)(C)C)cc2)n1C)C1CCS(=O)(=O)C1 (stereo unspecified) ?
a: inactive

q: Per the records of this test, what outcome belongs to C[C@H](NC(=O)c1nc[nH]c1C(=O)NCC(=O)OC(C)(C)C)c1ccccc1 ?
a: inactive

q: Per the records of this test, what outcome belongs to COc1ccc(-c2cc(C(=O)N/N=C/c3cccnc3)c3ccccc3n2)c(OC)c1 ?
a: inactive

q: Per the records of this test, what outcome belongs to Oc1c(Br)cc(/C=N/NC(=S)NCC2CCCO2)cc1Br (stereo unspecified) ?
a: inactive

q: Per the records of this test, what outcome belongs to O=C(CCc1ccc(S(=O)(=O)N2CCOCC2)cc1)Nc1ccc2ccccc2c1 ?
a: inactive

q: Per the records of this test, what outcome belongs to CCOc1ccc(OCC)c(NC(=O)C(NS(=O)(=O)c2ccc3c(c2)oc(=O)n3C)C(C)C)c1 (stereo unspecified) ?
a: inactive

q: Per the records of this test, what outcome belongs to CN(C)CCOc1cccc(Br)c1 ?
a: inactive

q: Per the records of this test, what outcome belongs to COc1ccc(N2CCN(C(=O)C3CCN(S(=O)(=O)c4ccc(C)cc4)CC3)CC2)cc1 ?
a: inactive

----------
The entries below come with measured inhibition of corepressor binding values attached.
Target: Photoreceptor-specific nuclear receptor (Homo sapiens) (UniProt Q9Y5X4)
Test: inhibitors of NR2E3-RetCOR corepressor binding, primary screen, NR2E3 agonist project, biochemical, TR-FRET, GST-NR2E3, biotin-RetCOR (AID 2300);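 also: 0% = DMSO wells and 100% = biotin wells as full block of FRET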
Conditions: 1536-well, at 4.78 µM, hits give high values
Out of some 320,000 compounds screened, about 380 (0.12%) were called active. This is one part of a sample in which actives are shown more often than they occur.
Just the number please, in %, no unit attached.

Look over these answered cases.
{"columns": ["molecule", "inhibition of corepressor binding [%]"],
 "data": [
  ["CCOC(=O)c1ccc(NC(=S)N2CCCC2)cc1", 0.82],
  ["C/C(=N/NC(=O)CSc1ccccn1)c1ccc([N+](=O)[O-])cc1", 3.53],
  ["COCC(=O)N1CCCC(C(=O)c2ccc(C(F)(F)F)cc2)C1 (stereo not given)", 3.84],
  ["O=C(NCCO)C(=O)NCC(c1ccc2c(c1)OCO2)N1CCN(c2ccc(F)cc2)CC1 (stereo not given)", -1.84]
]}

q: Which inhibition of corepressor binding is listed for CCc1ccc(CN(C)C(=O)C2CCC(=O)N(Cc3cccc(OC)c3)C2)nc1 (stereo not given) ?
a: -4.58
